Test system: RIVA
Assay: growth inhibition by drug plus 177Lu-lilotomab satetraxetan (1 - RLU/untreated control) (fraction); higher = stronger inhibition
Conditions: 10 nM; time (day): 4; 177Lu-lilotomab satetraxetan 0.5 ug/ml
endpoint: growth inhibition by drug plus 177Lu-lilotomab satetraxetan
Form field (numeric): enter value without unit.

Nc1ccc(-c2ccc3ncc4ccc(=O)n(-c5cccc(C(F)(F)F)c5)c4c3c2)cn1; 0.549

Ask | Which growth inhibition by drug plus 177Lu-lilotomab satetraxetan reading was recorded for the compound `O=C(Nc1ccccc1-c1cn2c(CN3CCNCC3)csc2n1)c1cnc2ccccc2n1` ?
Reply | 0.522

Ask | Quick one: growth inhibition by drug plus 177Lu-lilotomab satetraxetan for `C=CC(=O)Nc1cccc(Oc2nc(Nc3ccc(N4CCN(C)CC4)cc3OC)ncc2Cl)c1` ?
Reply | 0.494

Ask | Need growth inhibition by drug plus 177Lu-lilotomab satetraxetan of CC(C)n1c(/C=C/C(O)CC(O)CC(=O)O)c(-c2ccc(F)cc2)c2ccccc21 (configuration not stated) [Fluvastatin sodium (Lescol)] , thanks.
Reply | 0.544

Ask | What value of growth inhibition by drug plus 177Lu-lilotomab satetraxetan has been reported for the following compound? `COc1ccc(-c2ccc3c(N4CCOCC4)nc(N4C[C@@H](C)O[C@@H](C)C4)nc3n2)cc1CO`
Reply | 0.598

From: the supplement of paper PMC6897291
